Biological target: Siglec-4a (MAG)
Assay: Hapten inhibition assay, Siglec-4a (MAG)
Conditions: quotient IC50 reference compound / IC50 compound
RECORDED METRIC: Siglec-4a (MAG) rIP

CO[C@]1(C(=O)O)C[C@H](O)[C@@H](NC(C)=O)[C@H]([C@H](O)[C@H](O)CNC(=O)C2CCCCC2)O1 :: 50
CO[C@]1(C(=O)O)C[C@H](O)[C@@H](NC(C)=O)[C@H]([C@H](O)[C@H](O)CNC(=O)c2ccc([N+](=O)[O-])cc2[N+](=O)[O-])O1 :: 18

1. COC1(C(=O)O)CC(O)C(NC(C)=O)C(C(O)C(O)CNC(=O)CNC(=O)CN)O1 (stereo not drawn)
2. CO[C@]1(C(=O)O)C[C@H](O)[C@@H](NC(C)=O)[C@H]([C@H](O)[C@H](O)CNC(C)=O)O1
# argmax over Siglec-4a (MAG) rIP for candidates 1 and 2 Answer by stating the label of the chosen item. 2
(2: 3.7, 1: 0.9)

* * *

Biological target: Siglec-2 (murine CD22) (Mus musculus, UniProt P35329)
Sequence (P35329 22-148 limits assumed): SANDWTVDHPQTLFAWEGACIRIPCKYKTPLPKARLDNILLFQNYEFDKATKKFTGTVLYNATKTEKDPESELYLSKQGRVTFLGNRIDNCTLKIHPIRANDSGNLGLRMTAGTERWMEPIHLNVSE
Test: Hapten inhibition assay, Siglec-2 (murine CD22)
Type: binding
Conditions: unit inferred
RECORDED METRIC: IC50 (µM)

Examples from the recorded data:
COC1(C(=O)O)CC(O)C(NC(C)=O)C(C(O)C(O)CNC(=O)c2ccc3ccccc3c2)O1 (centres unmarked) :: 270
CO[C@]1(C(=O)O)C[C@H](O)[C@@H](NC(C)=O)[C@H]([C@H](O)[C@H](O)CNC(=O)c2ccccc2-c2ccccc2)O1 :: 647
COC1(C(=O)O)CC(O)C(NC(C)=O)C(C(O)C(O)CNC(=O)c2cccc(Oc3ccccc3)c2)O1 (centres unmarked) :: 887

I. COc1ccc(C(=O)NC[C@@H](O)[C@@H](O)[C@@H]2O[C@@](OC)(C(=O)O)C[C@H](O)[C@H]2NC(C)=O)cc1
II. CO[C@]1(C(=O)O)C[C@H](O)[C@@H](NC(C)=O)[C@H]([C@H](O)[C@H](O)CNC(=O)Cc2ccc3ccccc3c2)O1
III. CS[C@]1(C(=O)O)C[C@H](O)[C@@H](NC(C)=O)[C@H]([C@H](O)[C@H](O)CO)O1 [Methylthio-α-Neu5Ac]
IV. CO[C@]1(C(=O)O)C[C@H](O)[C@@H](NC(C)=O)[C@H]([C@H](O)[C@H](O)CNC(=O)c2cccnc2)O1
V. CO[C@]1(C(=O)O)C[C@H](O)[C@@H](NC(C)=O)[C@H]([C@H](O)[C@H](O)CNC(=O)c2ccc(NC(C)=O)cc2)O1
Output the entries ranked by IC50 from maximum down to minimum. Form field (ranking): labels in requested order. III, V, I, IV, II

a. COC1(C(=O)O)CC(O)C(NC(C)=O)C(C(O)C(O)CNC(=O)c2cccc3cc4ccccc4cc23)O1 (centres unmarked)
b. CO[C@]1(C(=O)O)C[C@H](O)[C@@H](NC(C)=O)[C@H]([C@H](O)[C@H](O)CNC(C)=O)O1
c. CO[C@]1(C(=O)O)C[C@H](O)[C@@H](NC(C)=O)[C@H]([C@H](O)[C@H](O)CO)O1 [Methyl-α-Neu5Ac, reference compound]
In this exercise, place the 3 compounds in ascending sequence of their recorded IC50. Form field (ranking): labels in requested order. a, b, c
(a: 647 µM, b: 1750 µM, c: 4690 µM)

* * *

Molecular target: Siglec-1 (sialoadhesin) (Mus musculus)
Test: Hapten inhibition assay, Siglec-1 (sialoadhesin)
Type: binding
Details: unit inferred
RECORDED METRIC: IC50 (µM)

Examples from the recorded data:
CO[C@]1(C(=O)O)C[C@H](O)[C@@H](NC(C)=O)[C@H]([C@H](O)[C@H](O)CO)O1 [Methyl-α-Neu5Ac, reference compound] :: 884
CCCC(=O)N[C@H]1[C@H]([C@H](O)[C@H](O)CO)O[C@@](OCc2ccccc2)(C(=O)O)C[C@@H]1O [Benzyl-α-5-N-butanoyl-neuraminic acid] :: 250
CO[C@]1(C(=O)O)C[C@H](O)[C@@H](NC(C)=O)[C@H]([C@H](O)[C@H](O)CNC(=O)c2cc(O)cc(O)c2)O1 :: 525
CS[C@]1(C(=O)O)C[C@H](O)[C@@H](NC(C)=O)[C@H]([C@H](O)[C@H](O)CO)O1 [Methylthio-α-Neu5Ac] :: 600
CCC(=O)NC1C(O)CC(OCc2ccccc2)(C(=O)O)OC1C(O)C(O)CO (stereo not drawn) [Benzyl-α-5-N-propanoyl-neuraminic acid] :: 215

1. CCCCCC(=O)NCC(O)C(O)C1OC(OC)(C(=O)O)CC(O)C1NC(C)=O (stereo not drawn)
2. CO[C@]1(C(=O)O)C[C@H](O)[C@@H](NC(C)=O)[C@H]([C@H](O)[C@H](O)CNC(=O)c2ccc(NC(C)=O)cc2)O1
# argmax over IC50 for candidates 1 and 2 Answer by stating the label of the chosen item. 1
(1: 1460 µM, 2: 295 µM)

* * *

Target: UniProt P35329
Assay: Hapten inhibition assay, Siglec-2 (murine CD22)
Format: binding
Conditions: quotient IC50 reference compound / IC50 compound
RECORDED METRIC: Siglec-2 (murine CD22) rIP

COc1ccc(C(=O)NC[C@@H](O)[C@@H](O)[C@@H]2O[C@@](OC)(C(=O)O)C[C@H](O)[C@H]2NC(C)=O)cc1 :: 7.4
CO[C@]1(C(=O)O)C[C@H](O)[C@@H](NC(C)=O)[C@H]([C@H](O)[C@H](O)CO)O1 [Methyl-α-Neu5Ac, reference compound] :: 1.0

1. CO[C@]1(C(=O)O)C[C@H](O)[C@@H](NC(C)=O)[C@H]([C@H](O)[C@H](O)CNC(C)=O)O1
2. CO[C@]1(C(=O)O)C[C@H](O)[C@@H](NC(C)=O)[C@H]([C@H](O)[C@H](O)CNC(=O)Cc2ccc(-c3ccccc3)cc2)O1
Consider entries 1 and 2 . Which has the numerically lower Siglec-2 (murine CD22) rIP? Answer by stating the label of the chosen item. 1

* * *

Molecular target: Siglec-1 (sialoadhesin) (Mus musculus, UniProt Q62230)
Sequence (Q62230 20-136 limits assumed): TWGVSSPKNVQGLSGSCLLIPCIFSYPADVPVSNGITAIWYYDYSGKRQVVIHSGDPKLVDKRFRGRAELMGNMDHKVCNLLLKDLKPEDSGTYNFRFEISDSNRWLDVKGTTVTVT
Assay: Hapten inhibition assay, Siglec-1 (sialoadhesin)
Type: binding
Settings: quotient IC50 reference compound / IC50 compound
RECORDED METRIC: Siglec-1 (sialoadhesin) rIP

COC1(C(=O)O)CC(O)C(NC(C)=O)C(C(O)C(O)CNC(=O)CNC(=O)CNC(=O)CN)O1 (stereo not drawn) :: >>0.05
CCOc1c(N[C@H]2[C@H]([C@H](O)[C@H](O)CO)O[C@@](OC)(C(=O)O)C[C@@H]2O)c(=O)c1=O :: <<0.15

Turning now to a further molecule:
Param readout = Siglec-1 (sialoadhesin) rIP; param system = Siglec-1 (sialoadhesin) (Mus musculus, UniProt Q62230); param query = O=C(NC1C(O)CC(OCc2ccccc2)(C(=O)O)OC1C(O)C(O)CO)c1ccccc1 (stereo not drawn) [Benzyl-α-5-N-benzoyl-neuraminic acid] ; response: value <0.05

* * *

Molecular target: Siglec-4a (MAG) (UniProt P20917)
Experiment: Hapten inhibition assay, Siglec-4a (MAG)
Details: read-out: Siglec-4a (MAG) IC50; unit inferred
pIC50: −log10 of the molar value.
RECORDED METRIC: pIC50

COC1(C(=O)O)CC(O)C(NC(C)=O)C(C(O)C(O)CNC(=O)Cc2ccccc2)O1 (stereo not drawn) :: 3.44

P. CO[C@]1(C(=O)O)C[C@H](O)[C@@H](NC(C)=O)[C@H]([C@H](O)[C@H](O)CNC(=O)Cc2ccc3ccccc3c2)O1
Q. CO[C@]1(C(=O)O)C[C@H](O)[C@@H](NC(C)=O)[C@H]([C@H](O)[C@H](O)CO)O1 [Methyl-α-Neu5Ac, reference compound]
R. CO[C@]1(C(=O)O)C[C@H](O)[C@@H](NC(C)=O)[C@H]([C@H](O)[C@H](O)C[S+](C)[O-])O1 (stereo partly drawn)
S. COC1(C(=O)O)CC(O)C(NC(C)=O)C(C(O)C(O)CNC(=O)c2ccc3ccccc3c2)O1 (stereo not drawn)
In this exercise, place the 4 molecules in ascending sequence of their recorded pIC50. Form field (ranking): labels in requested order. Q, R, P, S
(Q: 2.33, R: 3.16, P: 3.44, S: 4.70)

* * *

Target: Siglec-2 (human CD22) (Homo sapiens)
Sequence (P20273 20-138 limits assumed): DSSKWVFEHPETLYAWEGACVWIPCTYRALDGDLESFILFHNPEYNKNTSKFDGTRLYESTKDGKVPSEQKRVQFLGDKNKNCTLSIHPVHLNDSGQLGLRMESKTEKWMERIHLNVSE
Assay: Hapten inhibition assay, Siglec-2 (human CD22)
Assay type: binding
Conditions: quotient IC50 reference compound / IC50 compound
RECORDED METRIC: Siglec-2 (human CD22) rIP

Examples from the recorded data:
CO[C@]1(C(=O)O)C[C@H](O)[C@@H](NC(C)=O)[C@H]([C@H](O)[C@H](O)CNC(C)=O)O1 :: 0.6
COC1(C(=O)O)CC(O)C(NC(C)=O)C(C(O)C(O)CNC(=O)c2c(F)c(F)c(F)c(F)c2F)O1 (stereo not drawn) :: 3.3
CO[C@]1(C(=O)O)C[C@H](O)[C@@H](NC(C)=O)[C@H]([C@H](O)[C@H](O)CNC(=O)Cc2ccc3ccccc3c2)O1 :: 131
CO[C@]1(C(=O)O)C[C@H](O)[C@@H](NC(C)=O)[C@H]([C@H](O)[C@H](O)CNC(=O)c2ccccc2-c2ccccc2)O1 :: 10

A. CO[C@]1(C(=O)O)C[C@H](O)[C@@H](NC(C)=O)[C@H]([C@H](O)[C@H](O)CNC(=O)c2ccc(NC(C)=O)cc2)O1
B. CO[C@]1(C(=O)O)C[C@H](O)[C@@H](NC(C)=O)[C@H]([C@H](O)[C@H](O)CNC(=O)c2cccc3ccccc23)O1
Consider entries A and B . Which has the numerically lower Siglec-2 (human CD22) rIP? Answer by stating the label of the chosen item. A
